Hi there, I'd appreciate the recorded apparent KD of MS2 coat protein for every entry that follows.
Test system: MS2 coat protein
protocol.details: apparent KD of MS2 coat protein, switch ON state; designed switch direction (-1 OFF switch, 1 ON switch): 1; higher = weaker reporter binding
particulars: FMN input: 0 or 200 uM; Eterna round: R93 (includes R88 designs)
Express it in nM; write the number only.

Exercise: What does the data say about its apparent KD of MS2 coat protein? Entry: AAAAUAAAAAGGUAGGAUAUGGGUAAACCUACAUGAGGAUCACCCAUGUAAUAAAAAGAAAAAAACCAGAAGGACCAAAAUAAAA [72%, More Wateronthemoon, 9]
Key: 12.8

Exercise: What does the data say about its apparent KD of MS2 coat protein? Entry: AAAGAAAAACUAGAGGAUAUCUGAAUGGUAACAUGAGGAUCACCCAUGUGAAGAAAGGAACAUGAGGAGAAGGCUAGAAGAAAAA [JL Nando mod 17]
Key: 11.4

Exercise: What does the data say about its apparent KD of MS2 coat protein? Entry: GAAAAACAUGAGGAUCACCCAUGUAGAAACUAGGGAGGAUAUACUAAGACGAAAGUCGAAGUAGAAGGCCUUUAAA [Same State 1.4m (Mat - Mod of Eli - )]
Key: 14.2

Exercise: What does the data say about its apparent KD of MS2 coat protein? Entry: AAAAAACAUGAGGAUCACCCAUGUAUAAAAAUGGGAGGAUAUACUAAGACGAAAGUCAUAGUAGAAGGUCUAAAAA [76%, Meechl, 11]
Key: 137

Exercise: What does the data say about its apparent KD of MS2 coat protein? Entry: AAUCCAAAUAGUUAGGAUAUGGGAAUUAAGACAUGAGGAUCACCCAUGUAAUUAAAACAAGUUAACCAGAAGGGACAGGGUGAAA [JR_SS002_Sub207]
Key: 160

Exercise: What does the data say about its apparent KD of MS2 coat protein? Entry: CGAGUACAUGAGGAUCACCCAUGUUAUGAAUUGUCAGGAUAUGGAUAAAGGUGACAUGCGCCAGAAGGGACGUAUG [JR_SS001_Sub1006]
Key: 36.9

---

Test system: MS2 coat protein
protocol.details: apparent KD of MS2 coat protein; designed switch direction (-1 OFF switch, 1 ON switch): -1; higher = weaker reporter binding
particulars: input ligand: FMN 200 uM
Please enter YES where apparent KD of MS2 coat protein is greater than or equal to 30 nM, and NO where it is lower.

Exercise: Is apparent KD of MS2 coat protein for GAUAGGGCAGGAUAUCGAGAUCCGCACAUGAGGAUCACCCAUGUUCGGUCGAAAGACCGACGAGAAGGGCCGUAUC [Omei Ex5 E6] (Eterna round: R97, puzzle: Exclusion 5) at or above 30 nM?
Key: YES

Exercise: Is apparent KD of MS2 coat protein for GUCACAUGGACAUAGGAUCACAUGAGGAUCACCCAUGUGACUAACAAGCUUUUUGCUCGUCUUAUGUCUAUGUGAAG [Stov1/16-A3] (Eterna round: R97, puzzle: Sensor, turn-off variant 1) at or above 30 nM?
Key: NO

Exercise: Is apparent KD of MS2 coat protein for GAGUUAACAUGAGGAAUAUACAUGAGGAUCACCCAUGUUAACAAAUUUAUUGCUCGUCUUAUAACAACAAUUAACUC [Alarm 5 - Jieux - Sensor, turn-off variant 1] (Eterna round: R97, puzzle: Sensor, turn-off variant 1) at or above 30 nM?
Key: YES

Exercise: Is apparent KD of MS2 coat protein for AACCUGGCUGUUCACAGGAACAUGAGGAUCACCCAUGUCGUGGGUAGAUCCCUCCCUGGGAAAUCUGCUCGUCUUAU [Cac Sensor turn off v1 sub13] (Eterna round: R97, puzzle: Sensor, turn-off variant 1) at or above 30 nM?
Key: YES

Exercise: Is apparent KD of MS2 coat protein for AGUACUAUCACGAAAGUGAUAGUACAAAUAAGCUUUAGAACAUGAGGAUCACCCAUGUCCUCUUAAGCUCGUCUUAU [Mat - Sensor v2 -ver2- JL mod - D56] (Eterna round: R96, puzzle: Sensor v2, turn-off variant 2) at or above 30 nM?
Key: NO

Exercise: Is apparent KD of MS2 coat protein for CAUAGUUACUCAGGAUAUCAUACAUGAGGAUCACCCAUGUAAUAAAUGAGAAUUUCGAAUGUAUAUGAGAAGGGAGAAAUCUAC [Ostracism 59 - Jieux - Exclusion NG 2] (Eterna round: R96, puzzle: Exclusion NG 2) at or above 30 nM?
Key: YES

Exercise: Is apparent KD of MS2 coat protein for GAUGCACAUGAGGAUCACCCAUGUGAGGAUAUCAUUCCUAGAUCAGUCGGUCAGGAAAUGAGAAGGCGCCGGGA [Eternabot (L2) Solution 5] (Eterna round: R97, puzzle: Exclusion 1) at or above 30 nM?
Key: NO

Exercise: Is apparent KD of MS2 coat protein for AAGAAAGGUGACAUGGGCGACAUGAGGAUCACCCAUGUUACAAGCUUGUUGCUCGUCUUAUAAUUAACCCAUGUCAC [LRO Sensor-off var1-21 mod of Stov1-13-A1 by Brourd] (Eterna round: R97, puzzle: Sensor, turn-off variant 1) at or above 30 nM?
Key: NO

Exercise: Is apparent KD of MS2 coat protein for GCUCGACAUGAGGAUCACCCAUGUCAGGAUAUCUUUGGAGGAGGCUUGCCGAUGAUAGAGAGAAGGGACAGGUA [Eternabot (L2) Solution 70] (Eterna round: R97, puzzle: Exclusion 1) at or above 30 nM?
Key: NO

Exercise: Is apparent KD of MS2 coat protein for CUCCGCGGAGGAUAUGCAGCCUUCGACAUGAGGAUCACCCAUGUACAAGAUCCCUUGUCGGCAGAAGGCCGGGAGA [Usena] (Eterna round: R97, puzzle: Exclusion 5) at or above 30 nM?
Key: YES

Exercise: Is apparent KD of MS2 coat protein for UUUUGGCAGGCUAUUAUUAACAUGAGGAUCACCCAUGUGCAUCCAAAAUUACUUUUAGAUCUUGCUGGUCUUAUAUA [JR_STOV1_Sub085] (Eterna round: R97, puzzle: Sensor, turn-off variant 1) at or above 30 nM?
Key: YES

Exercise: Is apparent KD of MS2 coat protein for AAGAUACAUGAGGAUCACCCAUGUGAGGAUAUGAGCACGCCGGUGACGGUGAUAAGAAUCAGAAGGCACAAUGG [JL-ex1-4.32 salish99 mod] (Eterna round: R97, puzzle: Exclusion 1) at or above 30 nM?
Key: YES

Exercise: Is apparent KD of MS2 coat protein for CUCCGGCGUGUAGGAUAUGGUUCCGAUUAGGAUCCAGAAGGACAUGAGGAUCACCCAUGUACAUGUCGUCGGUCGUCACCGGGC [salish99_ExNG1_r04_211] (Eterna round: R96, puzzle: Exclusion NG 1) at or above 30 nM?
Key: YES

Exercise: Is apparent KD of MS2 coat protein for CCGCUCCGUGUAGGAUAUCGUUGUACCCUGCGGCGAGAAGGACAUGAGGAUCACCCAUGUAUGUUAUUAUCACGCGUGGCGCAC [Design 71] (Eterna round: R96, puzzle: Exclusion NG 1) at or above 30 nM?
Key: NO

Exercise: Is apparent KD of MS2 coat protein for AAUUUACAUGAGGAUCACCCAUGUGAGGAUAUAUGUAAACAAUUUUUAUUCAUCAAACAUAGAAGGCGCGUGAU [JR_Exc1_Sub044] (Eterna round: R97, puzzle: Exclusion 1) at or above 30 nM?
Key: YES

Exercise: Is apparent KD of MS2 coat protein for AUAUUGAUAGUAAGGAUAUGCGUGUGUGUAGUGAUGCAGAAGGUACAUGAGGAUCACCCAUGUAUUAAUGUGUG [LRO-BmodExc4-10-Oppy's Opus] (Eterna round: R97, puzzle: Brourd's mod of Exclusion 4) at or above 30 nM?
Key: NO

Exercise: Is apparent KD of MS2 coat protein for UUAGAUAGGUCAGGAUAUCGAUGAUUGAAUAGUAUGAUUUACAUGAGGAUCACCCAUGUUAAAUACGAGAAGGGACGUUAGAUU [JR_ExcNG2_Sub021] (Eterna round: R96, puzzle: Exclusion NG 2) at or above 30 nM?
Key: NO

Exercise: Is apparent KD of MS2 coat protein for ACUUAUUGAGGAUAUACAGAAAAUUACAUGAGGAUCACCCAUGUUCUUCAAUGUAUAUAUGUAGAAGGCAGAAGAU [Mat - Exclusion 5 - JL Mod - D16] (Eterna round: R97, puzzle: Exclusion 5) at or above 30 nM?
Key: YES

---

Tested on: MS2 coat protein
protocol.details: apparent KD of MS2 coat protein; designed switch direction (-1 OFF switch, 1 ON switch): 1; higher = weaker reporter binding
particulars: input ligand: none
endpoint.label: apparent KD of MS2 coat protein (nM)
Express it in nM; write the number only.

Exercise: What does the data say about its apparent KD of MS2 coat protein? Entry: AAGAAACAUGAGGAUCACCCAUGUAGAAAUAUGGGAGGAUAUACGAAGACGAAAGUCAAAGUAGAAGGCCUAAAAG [Mat - Same State 1 - Eli mod - D107] (Eterna round: R96, puzzle: Same State 1)
Key: 110

Exercise: What does the data say about its apparent KD of MS2 coat protein? Entry: GUACAUAUCAGAGGAUAUCACGUCGUUUAGACGUGAGAAGGCUGAUCACACAUGAAUAUUAAUACAUGAGGAUCACCCAUGUAC [SSNG1/13-A3] (Eterna round: R96, puzzle: Same State NG 1)
Key: 32.7

Exercise: What does the data say about its apparent KD of MS2 coat protein? Entry: UGGUACAUGGGAGGAUAUCAUGUAGAAACAUGAGGAUCACCCAUGUAGAUGGCACGAUUCGUGAAUGAGAAGGCCCAUGUACCU [JL SSNG1 3.60] (Eterna round: R96, puzzle: Same State NG 2)
Key: 52.8

Exercise: What does the data say about its apparent KD of MS2 coat protein? Entry: UUGAAUAAUUAAGGAUAUCGAGUACAUAUGUUAAACAUGAGGAUCACCCAUGUGGGUUGCGGUAUCGAGAAGGUAAAAGAAAAG [Mat - Same State NG 2 - JL mod - D60] (Eterna round: R96, puzzle: Same State NG 2)
Key: 35.8
